Listing: binding normalized to PSGL-1 of selected binders
molecular target: T1, Sulfotyrosine CCR2b biotin peptide (human); experiment: ELISA, 50 nM mAb
T1 construct: also called CCR2b peptide
T1 peptide: TTFFD[sY]D[sY]GAPSHGGK(Biotin)
Non-standard residues stand in square brackets, D forms with d. No end group written: not given here. *: point of attachment. Biotin = O=C1N[C@H]2[C@H](CS[C@H]2CCCCC(=O)*)N1; sY = N[C@@H](Cc1ccc(OS(=O)(=O)O)cc1)C(=O)O
measured.quantity: binding normalized to PSGL-1

>  <binder>
03B04 (antibody, IgG4, V domains shown) VH: EVKLLESGGGLVKPGGSLRLSCAASGFAFSRYTMNWVRQAPGKGLEWVSSISSSSSYIYYADSVKGRFTISRDNAKNSLVLQMNSLRPEDTAVYYCARGGIAANDYWGQGTLVTVSS VL: EIVMTQTPLSLPVTLGQPASISCRSSRNLVHYDGNTYLSWFHQRPGQPPRRLIYKISNRESGVPDRFSGSGSGTDFTLKISRVEAEDVGVYYCLQHTHWPWTFGPGTKVEIK

>  <measured.quantity>
binding normalized to PSGL-1

>  <numeric.value>
0.01

$$$$
>  <binder>
05H03 (antibody, IgG4, V domains shown) VH: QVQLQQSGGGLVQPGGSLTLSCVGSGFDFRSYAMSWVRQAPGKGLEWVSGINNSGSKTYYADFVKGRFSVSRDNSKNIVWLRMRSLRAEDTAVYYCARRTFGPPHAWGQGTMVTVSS VL: DIVMTQSPLSLSVTPGEPASISCRSSQSLLHSNGYKYLDWYLQKPGQSPQLLIYMGSNRASGVPDRFSGSGSGTDFTLKISRVEAEDVGVYYCMQGLQSPLTFGGGTKVEIE

>  <measured.quantity>
binding normalized to PSGL-1

>  <numeric.value>
0.45

$$$$
